test: Aqueous solubility in pH 5.5 phosphate buffer at 120 uM after 24 hrs by HPLC method; type: physicochemical; details: phosphate buffer, pH 5.5
measurement_kind: solubility at 24 h, 120 µM

>  <item_smiles>
COC(=O)[C@H](Cc1ccccc1)NC(=O)c1c(C)[nH]c(/C=C2\C(=O)Nc3ccc(C(=O)O)cc32)c1C

>  <observed_result>
< 5 µM

$$$$
>  <item_smiles>
COC(=O)c1ccc2c(c1)/C(=C/c1[nH]c(C)c(C(=O)N[C@@H](Cc3ccccc3)C(=O)OC)c1C)C(=O)N2

>  <observed_result>
< 1 µM

$$$$
>  <item_smiles>
CCOC(=O)c1c(C)[nH]c(/C=C2\C(=O)Nc3ccc(C(=O)N[C@@H](Cc4ccccc4)C(=O)OC)cc32)c1C

>  <observed_result>
< 1 µM

$$$$
